Test system: L. lactis IL1403
Assay: Antimicrobial activity (halo of inhibition on petri dishes) of cell-free produced, intein-circularized bacteriocins against indicator L. lactis IL1403
Type: cell-based, Lactococcus lactis
Design: key: +: Bacteriocins showing a halo of inhibition against at least one of the indicators were considered as positive
Details: bacteriocins circularized with inteins; cell free production and overnight incubation at room temperature
Protocol: Recombinant vectors were stabilized and amplified in E. coli DH5a standard strain and used as templates for cell-free protein synthesis using PURExpress® in vitro Protein Synthesis Kit (New England Biolabs). All bacteriocins synthesized were tested on petri dishes for antimicrobial activity against an indicator strain. Bacteriocins showing a halo of inhibition against at least one of the indicators were considered as positive. […]
endpoint-label: Antimicrobial activity, Indicator L. lactis IL1403

{"molecule": "Enterocin NKR-5-3B (protein, listed as Enterococcus faecium, circularized via Npu split intein; Strain NKR-5-3; Enterocin NKR-5-3B, circular bacteriocin of Enterococcus faecium NKR-5-3) SSYAAKKVIDIINTGSAVATIIALVTAVVGGGLITAGIVATAKSLIKKYGAKYAAAWLTANLGI", "measured": "+"}
{"molecule": "Bacteriocin YS111: putative circular bacteriocin of Streptococcus suis YS111; SEQ ID NO: 828 circularized with Npu split intein (protein, listed as Streptococcus suis, circularized via Npu split intein; Strain YS111; Bacteriocin YS111) STVVNVILGAGTAVTILGIISSIASGGATTLLTVGWAGFKATVQRLAKQSMARAIAYVAAALGVPSAVA", "measured": "+"}
{"molecule": "Amylocyclicin (protein, listed as Bacillus amyloliquefaciens, circularized via Npu split intein; Strain FZB42; Amylocyclicin (Alc), circular bacteriocin of Bacillus amyloliquefaciens FZB42) STAAAKKAIDIIDAASTIASIISLIGIVTGAGAISYAIVATAKTMIKKYGKKYAAAWLASTLGI", "measured": "+"}
